# System: C57BL/6J mice
# protocol_text: In vivo expression by IV, 1.0 mg/kg luciferase RNA-LNPs, whole-body and organ IVIS luminescence
# condition_label: Formulation No. 001, RNA No. 331; male C57BL/6J mice, 1.0 mg*kg−1 intravenous, 24-hours post injection
quantity_measured: Spleen (p/s)

{"columns": ["molecule", "Spleen (p/s)"],
 "data": [
  ["CCCCC/C=C\\C/C=C\\CCCCCCCCOC(=O)C(COC(=O)NCCN1CCCCC1)NC(=O)OCCCCCCCCOC(=O)C(CCCCCC)CCCCCCCC (centres unmarked)", "3.95E+08 p/s"],
  ["CCCCC/C=C\\C/C=C\\CCCCCCCCOC(=O)NC(COC(=O)NCCN1CCCCCC1)C(=O)OCCCCCCCC(=O)OC(CCCCCCCC)CCCCCCCC (centres unmarked)", "2.33E+08 p/s"],
  ["CCCCCCCCC(CCCCCC)C(=O)OCCCCCCCCOC(=O)NC(COC(=O)NCCN1CCCCC1)C(=O)OCCCCCCCCOC(=O)C(CCCCCC)CCCCCCCC (centres unmarked)", "2.55E+08 p/s"],
  ["CCCCCCCCC(CCCCCC)C(=O)OCCCCCCCCOC(=O)NC(COC(=O)NCCN1CCCCCC1)C(=O)OCCCCCCCCOC(=O)C(CCCCCC)CCCCCCCC (centres unmarked)", "2.95E+08 p/s"],
  ["CCCCCCCCCC(=O)OCCCCCCCOC(=O)C(COC(=O)NCCN1CCCCC1)NC(=O)OCCCCCCCCOC(=O)C(CCCCCC)CCCCCCCC (centres unmarked)", "5.98E+08 p/s"],
  ["CCCCC/C=C\\C/C=C\\CCCCCCCCOC(=O)C(COC(=O)NCCN1CCCCCC1)NC(=O)OCCCCCCCCOC(=O)C(CCCCCC)CCCCCCCC (centres unmarked)", "6.74E+08 p/s"],
  ["CCCCCCCCCC(=O)OCCCCCCCOC(=O)C(COC(=O)NCCN1CCCCCC1)NC(=O)OCCCCCCCCOC(=O)C(CCCCCC)CCCCCCCC (centres unmarked)", "1.17E+09 p/s"],
  ["CCCCC/C=C\\CCOC(=O)CCCCCOC(=O)C(COC(=O)NCCN1CCCCCC1)NC(=O)OCCCCCCCCOC(=O)C(CCCCCC)CCCCCCCC (centres unmarked)", "2.12E+09 p/s"],
  ["CCCCC/C=C\\CCOC(=O)CCCCCOC(=O)C(COC(=O)NCCN1CCCCC1)NC(=O)OCCCCCCCCOC(=O)C(CCCCCC)CCCCCCCC (centres unmarked)", "7.74E+08 p/s"],
  ["CCCCCCCCCCCOC(=O)CCCCCOC(=O)C(COC(=O)NCCN1CCCCC1)NC(=O)OCCCCCCCCOC(=O)C(CCCCCC)CCCCCCCC (centres unmarked)", "3.85E+08 p/s"]
]}

IN: Find the recorded Spleen (p/s) belonging to CCCCCCCC/C=C\CCCCCCCC(=O)NC(COC(=O)NCCN1CCCCC1)C(=O)OCCCCCC(=O)OCC(CCCCCCCC)CCCCCCCCCC (centres unmarked) and report it.
OUT: 3.20E+08 p/s

IN: Find the recorded Spleen (p/s) belonging to CCCCC/C=C\C/C=C\CCCCCCCCOC(=O)NC(COC(=O)NCCN1CCCCCC1)C(=O)OCCCCCCCCOC(=O)C(CCCCCC)CCCCCCCC (centres unmarked) and report it.
OUT: 2.37E+08 p/s

IN: Find the recorded Spleen (p/s) belonging to CCCCCCCCCCCOC(=O)NC(COC(=O)NCCN1CCCCC1)C(=O)OCCCCCCCC(=O)OC(CCCCCCCC)CCCCCCCC (centres unmarked) and report it.
OUT: 2.11E+08 p/s

IN: Find the recorded Spleen (p/s) belonging to CCCCCCCCC(CCCCCC)C(=O)OCCCCCCCCOC(=O)NC(COC(=O)NCCN(C)C)C(=O)OCCCCCCCCOC(=O)C(CCCCCC)CCCCCCCC (centres unmarked) and report it.
OUT: 2.19E+08 p/s

IN: Find the recorded Spleen (p/s) belonging to CCCCC/C=C\C/C=C\CCCCCCCCOC(=O)NC(COC(=O)NCCN1CCCCCC1)C(=O)OCCCCCC(=O)OCC(CCCCCCCC)CCCCCCCCCC (centres unmarked) and report it.
OUT: 8.51E+08 p/s

IN: Find the recorded Spleen (p/s) belonging to CCCCCCCCCCCOC(=O)CCCCCOC(=O)C(COC(=O)NCCN1CCCCCC1)NC(=O)OCCCCCCCCOC(=O)C(CCCCCC)CCCCCCCC (centres unmarked) and report it.
OUT: 1.13E+09 p/s

IN: Find the recorded Spleen (p/s) belonging to CCCCCCCC/C=C\CCCCCCCC(=O)NC(COC(=O)NCCN1CCCCC1)C(=O)OCCCCCCCC(=O)OC(CCCCCCCC)CCCCCCCC (centres unmarked) and report it.
OUT: 3.38E+08 p/s

IN: Find the recorded Spleen (p/s) belonging to CCCCCCCCC(CCCCCC)C(=O)OCCCCCCCCOC(=O)NC(COC(=O)NCCN1CCCCCC1)C(=O)OCCCCCCCCCCC(=O)OCCCCCC (centres unmarked) and report it.
OUT: 4.12E+08 p/s

IN: Find the recorded Spleen (p/s) belonging to CCCCC/C=C\C/C=C\CCCCCCCCOC(=O)NC(COC(=O)NCCN1CCCCCC1)C(=O)OCCCCCCCOC(=O)CCCCCCCCC (centres unmarked) and report it.
OUT: 4.76E+08 p/s

IN: Find the recorded Spleen (p/s) belonging to CCCCC/C=C\C/C=C\CCCCCCCCOC(=O)NC(COC(=O)NCCNC)C(=O)OCCCCCC(=O)OCC(CCCCCCCC)CCCCCCCCCC (centres unmarked) and report it.
OUT: 5.98E+07 p/s

IN: Find the recorded Spleen (p/s) belonging to CCCCCCCCC(CCCCCC)C(=O)OCCCCCCCCOC(=O)NC(COC(=O)NCCN1CCCCC1)C(=O)OCCCCCCCCCCC(=O)OCCCCCC (centres unmarked) and report it.
OUT: 3.25E+08 p/s

IN: Find the recorded Spleen (p/s) belonging to CCCCC/C=C\C/C=C\CCCCCCCCOC(=O)NC(COC(=O)NCCN1CCCCCC1)C(=O)OCCCCCC(=O)OCCCCCCCCCCC (centres unmarked) and report it.
OUT: 1.18E+08 p/s

IN: Find the recorded Spleen (p/s) belonging to CCCCC/C=C\C/C=C\CCCCCCCCOC(=O)NC(COC(=O)NCCN1CCCCCC1)C(=O)OCCCCCCCCCC(=O)OCCCCCCC (centres unmarked) and report it.
OUT: 4.52E+08 p/s

Recorded values, source patent US20260200849A1.
